Ref: ChEMBL document CHEMBL3988442

Target Or Test System: Chromo domain-containing protein 1 (Saccharomyces cerevisiae (strain ATCC 204508 / S288c) (Baker's yeast)) (UniProt P32657)
Sequence (P32657 whole entry, the tested form may be a part): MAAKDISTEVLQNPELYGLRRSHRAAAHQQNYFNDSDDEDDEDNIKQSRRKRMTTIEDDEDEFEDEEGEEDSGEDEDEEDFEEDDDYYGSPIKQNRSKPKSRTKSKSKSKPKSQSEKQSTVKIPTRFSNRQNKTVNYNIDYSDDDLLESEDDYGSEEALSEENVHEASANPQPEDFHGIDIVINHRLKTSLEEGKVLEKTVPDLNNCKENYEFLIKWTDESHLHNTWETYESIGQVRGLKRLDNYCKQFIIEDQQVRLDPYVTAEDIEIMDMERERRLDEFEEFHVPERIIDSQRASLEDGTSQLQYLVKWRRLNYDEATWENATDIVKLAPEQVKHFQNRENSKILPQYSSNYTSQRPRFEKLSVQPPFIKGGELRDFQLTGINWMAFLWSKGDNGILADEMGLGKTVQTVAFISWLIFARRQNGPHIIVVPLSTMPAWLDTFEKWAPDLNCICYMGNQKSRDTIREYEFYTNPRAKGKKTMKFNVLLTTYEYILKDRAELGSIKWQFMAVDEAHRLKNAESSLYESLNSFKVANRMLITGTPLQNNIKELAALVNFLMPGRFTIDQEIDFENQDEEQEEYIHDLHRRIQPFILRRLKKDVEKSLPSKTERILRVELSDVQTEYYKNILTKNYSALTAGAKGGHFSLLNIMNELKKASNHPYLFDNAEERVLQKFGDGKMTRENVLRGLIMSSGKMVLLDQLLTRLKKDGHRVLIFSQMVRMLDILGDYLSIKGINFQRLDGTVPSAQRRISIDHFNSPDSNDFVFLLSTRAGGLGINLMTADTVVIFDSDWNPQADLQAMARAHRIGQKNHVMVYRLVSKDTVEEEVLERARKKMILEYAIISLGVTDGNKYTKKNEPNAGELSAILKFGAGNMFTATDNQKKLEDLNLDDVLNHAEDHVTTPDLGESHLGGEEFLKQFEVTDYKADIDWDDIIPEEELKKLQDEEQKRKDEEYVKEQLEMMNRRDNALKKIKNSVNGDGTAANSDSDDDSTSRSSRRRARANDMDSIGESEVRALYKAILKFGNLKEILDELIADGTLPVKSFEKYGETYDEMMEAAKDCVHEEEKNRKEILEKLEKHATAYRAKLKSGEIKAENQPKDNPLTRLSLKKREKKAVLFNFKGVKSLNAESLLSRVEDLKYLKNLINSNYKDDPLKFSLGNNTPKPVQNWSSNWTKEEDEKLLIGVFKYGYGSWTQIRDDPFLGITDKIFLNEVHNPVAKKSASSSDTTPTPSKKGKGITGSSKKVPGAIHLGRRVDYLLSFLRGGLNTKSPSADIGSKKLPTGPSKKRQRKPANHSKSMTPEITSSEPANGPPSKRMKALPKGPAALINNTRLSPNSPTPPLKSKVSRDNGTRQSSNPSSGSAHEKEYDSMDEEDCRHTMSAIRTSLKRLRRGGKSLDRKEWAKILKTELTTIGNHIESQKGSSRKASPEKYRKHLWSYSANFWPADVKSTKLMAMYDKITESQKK
Experiment Notes: ScCHD-1 Enzyme Inhibition Assay; further: in the data most compounds retested in dose-response had high values
Assay type: functional
Parameters: scale not given: direction of the effect not stated beside the values
Conditions: 30 µM
Measurement Kind: Percent Effect

Cc1cccc(COC[C@H]2CC[C@H]3[C@H](CCN3C(=O)CC3CC3)O2)n1 ... -5.1%
O=C(CCCOc1ccc(F)cc1)N1CCCC(n2cccn2)C1 (stereo not given) ... -14.5%
CC(CNCc1ccc(Cl)c(Cl)c1)Oc1ccccn1 (stereo not given) ... -11.8%

Challenge: Fill in: Percent Effect of COCCOc1ccc(NC(=O)N2CCCC2c2cc(C)no2)cn1 (stereo not given) is ___
Response given: -14.1%

Challenge: Fill in: Percent Effect of Cc1ccc(CC(=O)NC(C)C(=O)N2CCS(=O)(=O)CC2)cc1 (stereo not given) is ___
Response given: -3.12%

====

Target Or Test System: Tyrosyl-tRNA synthetase, putative (Trypanosoma cruzi (strain CL Brener)) (UniProt Q4DSP6)
Sequence (Q4DSP6 as listed by the source): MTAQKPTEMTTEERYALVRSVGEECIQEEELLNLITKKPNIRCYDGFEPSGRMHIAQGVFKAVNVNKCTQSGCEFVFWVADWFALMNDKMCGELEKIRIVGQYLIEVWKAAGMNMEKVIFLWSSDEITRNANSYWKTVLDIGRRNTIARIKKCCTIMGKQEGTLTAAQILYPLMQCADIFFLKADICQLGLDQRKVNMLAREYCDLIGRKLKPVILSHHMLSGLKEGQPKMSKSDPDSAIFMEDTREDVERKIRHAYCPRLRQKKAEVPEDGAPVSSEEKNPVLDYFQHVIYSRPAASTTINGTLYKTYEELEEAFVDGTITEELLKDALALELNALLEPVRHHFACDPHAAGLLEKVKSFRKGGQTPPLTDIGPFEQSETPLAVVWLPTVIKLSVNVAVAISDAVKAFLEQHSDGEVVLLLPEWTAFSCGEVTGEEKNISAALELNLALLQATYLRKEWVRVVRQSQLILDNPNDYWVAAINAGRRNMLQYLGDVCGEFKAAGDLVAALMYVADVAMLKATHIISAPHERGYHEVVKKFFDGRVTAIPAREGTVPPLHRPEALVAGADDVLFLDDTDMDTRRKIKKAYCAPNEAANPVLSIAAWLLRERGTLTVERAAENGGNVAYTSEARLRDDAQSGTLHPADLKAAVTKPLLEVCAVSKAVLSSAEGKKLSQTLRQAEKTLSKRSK
Experiment Notes: Trypanosoma cruzi tyrosyl tRNA synthetase (TcYRS) SOP
Type: functional
Design: scale not given: direction of the effect not stated beside the values
Conditions: 30 µM
Measurement Kind: Percent Effect (%)
Respond numerically; units are % and should not be typed.

O=C(CSc1nc2c(cnn2CCO)c(=O)[nH]1)N1CCCCCC1 ... 10
Cc1ccc(C(=O)Nc2cc(C(C)C)n[nH]2)cn1 ... 9.76
O=C(Nc1ncn(CC(=O)N2CCCCCC2)n1)C1CCCO1 (centres undefined) ... 9.76

Now examine the next entry.
Challenge: Fill in: Percent Effect of Cn1cccc1C(=O)N1CCN(Cc2ccncc2)c2ncccc2C1 is ___
Response given: 10

====

Target Or Test System: AMP-activated protein kinase, AMPK (Homo sapiens) (UniProt P54646+O43741+P54619+Q9UGJ0+Q9Y478+Q13131+Q9UGI9)
Experiment Notes: AMP-dependent Kinase enzyme assay. An in vitro enzyme assay that detects ADP turnover that is directly proportional to AMPK activity. This uses naive AMPK that is activated during the assay with MK-8722
Format: functional
Set-up: scale not given: direction of the effect not stated beside the values
Conditions: 30 µM
As shown below, each of these compounds has a reported Percent Effect value.
Enter the number, and then the unit.

Below, each entry is followed by its recorded Percent Effect result.
Cc1nc(C)n(CC2CCCN2CC(=O)Nc2cc(C(C)C)no2)n1 (configuration not stated) ... -3.35%
Cc1c[nH]nc1C1CCN(S(=O)(=O)N(C)C)CC1 ... -2.65%
Cc1ccc(NC2CCN(C(=O)c3cc[nH]n3)CC2)nn1 ... 8.84%
Cc1cc(C(=O)NCC2COCc3c(C)nnn3C2)no1 (configuration not stated) ... -3%
Cc1n[nH]c(C2CN(C(=O)c3cc(C4CC4)[nH]n3)CCO2)n1 (configuration not stated) ... 3.73%
CCCNC(=O)CNC(=O)CCc1ccccc1Br ... -6.34%

Now examine the next entry.
Challenge: Fill in: Percent Effect of CCc1ccc(CN2CCCC(CO)(CCOC)C2)cc1 (configuration not stated) is ___
Response given: -3.48%

====

As shown below, each of these compounds has a reported Percent Effect value.
Target Or Test System: AMP-activated protein kinase, AMPK (Homo sapiens) (UniProt P54646+O43741+P54619+Q9UGJ0+Q9Y478+Q13131+Q9UGI9)
Experiment Notes: AMP-dependent Kinase enzyme assay. An in vitro enzyme assay that detects ADP turnover that is directly proportional to AMPK activity. This uses naive AMPK that is activated during the assay with MK-8722
Assay type: functional
Parameters: scale not given: direction of the effect not stated beside the values
Conditions: 30 µM
Respond numerically; units are % and should not be typed.

Below, each entry is followed by its recorded Percent Effect result.
O=C(C1=CCCC1)N1CCC[C@]2(C[C@@H](Oc3ncccc3F)CO2)C1 ... -7.12
COCCCN1CCCN(C(C)C(=O)Nc2cccc(I)c2)CC1 (configuration not stated) ... 1.61
O=C(CC1CCCCC1)N1CCN(C(=O)NCc2ccccn2)CC1 ... 1.16
O=C(NC1CC1)[C@H]1C[C@H]2OCC[C@H]2N(CC2CCOCC2)C1 ... 1.56
CCSCCNC(=O)C(c1cccc(F)c1)N(C)C (configuration not stated) ... -0.968
Cc1ccc(C(=O)N2CCCC2c2nnc3n2CCCCC3)o1 (configuration not stated) ... 7.46
OC1(CN2CCCC2)CCCN(Cc2ccc(F)cc2Cl)C1 (configuration not stated) ... -4.18
Cc1ccc(NS(=O)(=O)CC2=NC(=O)n3cccc3C2=O)cc1 ... -2.73

Challenge: Fill in: Percent Effect of Clc1snnc1CN1CCCCC1Cn1cncn1 (configuration not stated) is ___
Response given: -10.2

Challenge: Fill in: Percent Effect of c1coc(CN2C[C@H](OCC3CCOCC3)[C@H]3COC[C@H]32)c1 is ___
Response given: 6.46

Challenge: Fill in: Percent Effect of CNC(=O)CSc1cnn(CC(=O)Nc2cccc(Cl)c2C)c(=O)c1Cl is ___
Response given: -0.626

Challenge: Fill in: Percent Effect of CS(=O)(=O)Cc1cccc(C(=O)NCC2Cc3ccccc3O2)c1 (configuration not stated) is ___
Response given: 2.31

====

As shown below, each of these molecules has a reported Percent Effect value.
Target Or Test System: Protein translocase subunit SecA (Escherichia coli (strain K12))
Experiment Notes: Assay to Identify E. coli SecA ATPase Inhibitors
Type: functional
Parameters: scale not given: direction of the effect not stated beside the values
Conditions: 30 µM
Measured potencies and affinities stand elsewhere.
Respond numerically; units are % and should not be typed.

Cc1ccc(CN2CCn3c(C(=O)N(C)C)cnc3C2)s1 ... -2.48
COc1ccnc(N2CCN(C(=O)CCc3nccs3)CC2)n1 ... 0.0461
Cn1nc(C2CCCN(Cc3ccsc3)C2)c2nccnc21 (stereo not drawn) ... -0.97
CCCn1ccc(C(=O)N2CCC(C)CC2)n1 ... -3.61
CCc1nc(CN2CCCN(Cc3cnn(C)c3)CC2)no1 ... 2.29
CCOc1nc2cccnc2n(CC(=O)NCCOC)c1=O ... -0.937

Challenge: Lab note: need Percent Effect for CCc1ccc(C(=O)NC2CCN(c3cnn(C)c3)C2=O)o1 (stereo not drawn) on Protein translocase subunit SecA (Escherichia coli (strain K12)), anyone have it?
Response given: -6.02

Challenge: Lab note: need Percent Effect for Cc1ccc(C(=O)N2CCC3(CCN(C(=O)c4cccnc4)C3)CC2)o1 on Protein translocase subunit SecA (Escherichia coli (strain K12)), anyone have it?
Response given: -2.08

Challenge: Lab note: need Percent Effect for COc1nn(C)cc1C(=O)N1CCC(c2nnc(C3CC3)o2)CC1 on Protein translocase subunit SecA (Escherichia coli (strain K12)), anyone have it?
Response given: -2.78

====

Tested on: Trypanosoma cruzi
Experiment Notes: Trypanosoma cruzi phosphomannomutase and mannose-1-phosphate guanylyltransferase assay
Type: functional
Parameters: scale not given: direction of the effect not stated beside the values
Conditions: 10 µM
Measurement Kind: Percent Effect (%)
Respond numerically; units are % and should not be typed.

Below, each entry is followed by its recorded Percent Effect result.
COCCN1CC[C@@H]2OC[C@H](C(=O)NCc3cccs3)C[C@@H]2C1 ... -3.23
CS(=O)(=O)NCC1CCCCN1C(=O)Nc1cccnc1N1CCCC1 (centres undefined) ... 7.89
CC(CNCc1ccc(Cl)c(Cl)c1)Oc1ccccn1 (centres undefined) ... 4.91
Cc1cc(C(=O)N2CC[C@@H]3CN(c4ncccn4)CCO[C@@H]3C2)c(C)o1 ... 0.0978
Cc1cnn(CC2CN(Cc3nc(-c4ccoc4)no3)CCO2)c1 (centres undefined) ... 7.08

Challenge: Fill in: Percent Effect of Cc1cc(C)nc(CCNC(=O)[C@H]2CNC[C@@H](C(=O)N3CCCC3)C2)n1 is ___
Response given: -8.33

Challenge: Fill in: Percent Effect of Cc1ccccc1CS(=O)(=O)CC(=O)NC1CCCCNC1=O (centres undefined) is ___
Response given: 4.87

Challenge: Fill in: Percent Effect of CC(C)n1c(C2CCCN(CCS(C)(=O)=O)C2)nc2ccccc21 (centres undefined) is ___
Response given: 0.586

Challenge: Fill in: Percent Effect of O=C(Cc1ccsc1)N1CCC(n2nc(-c3ccco3)ccc2=O)CC1 is ___
Response given: -2.17

Challenge: Fill in: Percent Effect of Cc1nc(CN(C)C2CCN(Cc3sc(C)nc3C)C2)no1 (centres undefined) is ___
Response given: 7.38

Challenge: Fill in: Percent Effect of CCc1ccc(C(=O)N2CCN(CCS(C)(=O)=O)CC2)o1 is ___
Response given: -0.752

Challenge: Fill in: Percent Effect of N#Cc1ccc(OCCNc2cccc(C(=O)N3CCOCC3)c2)cc1 is ___
Response given: 6.98

Challenge: Fill in: Percent Effect of CC(C)CCn1c(=O)nc2n1C(=O)N(c1ccc(F)cc1)C2 is ___
Response given: -1.46

Challenge: Fill in: Percent Effect of CN(C)Cc1ccnc(C2CCCN2Cc2ccncc2)n1 (centres undefined) is ___
Response given: 6.72

Challenge: Fill in: Percent Effect of Cc1noc(C(C)N2CCN(CCC(=O)N3CCCCC3)CC2)n1 (centres undefined) is ___
Response given: 4.19
